B1: TPR t1 (parent)
chain: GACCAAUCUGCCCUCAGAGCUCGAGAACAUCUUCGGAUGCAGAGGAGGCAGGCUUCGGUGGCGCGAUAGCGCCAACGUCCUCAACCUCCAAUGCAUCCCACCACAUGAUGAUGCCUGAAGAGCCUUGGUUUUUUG

variants of: B1; test: polymerase ribozyme fitness, log enrichment relative to wild type (log ratio); higher = more active; in vitro selection for triplet polymerase activity
parameter: polymerase ribozyme fitness (log ratio)

• GACCAAUCUGCCCUCAGAGCUCGAGAACAUCUUCGGAUGCAGAGGAGGCAGGCUUCGGUGGCGCGAUAGCGCCAACGUCCUCAACCUCCAAUGCAUUCCACCACAUGAUGAUGCCUGAAGAGCCGUGGUUUUUUG [C97U U125G] = -1.25
• GACCAAUCUGCCUUCAGAGCUGGAGCACAUCUUCGGUUGCGGAGGAGGCGGGCUUCGGUGGCGCGAUAGCGCCAACGUCCUCAACCUCCAAUGCAUCCCACCACAUGAUGAUGCUUGAAGAGCCUUGGUUUUUUG [C13U C22G A26C A37U A41G A50G C115U] = -3.21
• GACCAAUCUGCCCUCAGAGCUCGAGAACAUCUUCGGAUGCAGAGGAGGCAGGCUUCGGUGGCGCGAUAGCGCCAACGUCCUCAACCUCCAAUGCAUCCCACCAAAUGAUGAUGCCAGAAGAGCCUUGGUUUUUUG [C104A U116A] = -5.02
• GACCAAUCUGCCCUCAGAGCUCGAGAAUAUCUUCGGAUGCAGAGGAGGCAGGCUUCGGUGGCGCGAUAGCGCCAACGUCCUCAACCUCCAAUGCAUCCCACCACAAGAUGAUGCCUGAAGAGCCUUGGUUUUUUG [C28U U106A] = -0.471
• GACCAAUCUGCCCUCAGAGCUCGAGAACAUCUUCGGAUGCAGAGGAGGCAGGCUUCGGUGCCGCGAUAGCGCCAACGUCCUCAACCUCCAAUGCAUCCCACCACAUGAUGAAGCCUGAAGAGCCUUGGUUUUUUG [G61C U112A] = -0.897
• GACCAAUCUGUCCUCAGAGCUCGAGAACAUCUUCGGAUGCAGAGGAGGCAGGCUUCGGUGGCGCGAUAGCGCCUACGUCCUCAACCUCCAAUGCAUCCCACCACAUGAGGAUGCCAGAAGAGCCUUGGUUUUUUG [C11U A74U U109G U116A] = -6.7
• GACCCAUCUACCCUCAGAGCUCGAGAACAUCUUAGGAUGCAGAGGAGGCAGGCUUCGGUGGCUCGAUAGCGCCAACGUCCUCAACCUCCAAUGCAUCCCACCACAUGAUGAUGCCUGAAGAGUCUUGGUUUUUUG [A5C G10A C34A G63U C123U] = -4.02
• GACCAAUCUGCCCUCAGAGCUCGAGAACAUCUUCGGAUGGAGAGGAGGAAGGCUUCGGUGGCGUGAUAGCGCCAACGUCCUCAACCUCCAAUGCAUCCCACCACAUGAUGAUGCCUGAUGAGCCUAGGUUUUUUG [C40G C49A C64U A119U U126A] = -3.13
• GACCACGCUGCCCUCAGAGCUCGAGAACGUCUUCGGAUGCAGAGGAGCCAGGCUUCGGUGACGCGAUAGCGCCAACGUCCUCAACCUCCAAUGCCUCCCACCACAUGAUGAUGCCUGAAGAGCCUUGGUUUUUUG [A6C U7G A29G G48C G61A A95C] = -2.21
• GACCAAUCUGCCCUCAGAGCUCGAGAACAUCUUCGGAUGCAGAGGAGGCAGGCUUCGGUGGCGCGAUAGGGCCAACGUCCUCAACCUCCAAUGCAUCCCACCACAUGAUGAUGCCUGAAGAGCGUUGGUUUUUUG [C70G C124G] = -0.578
• GACCAAUCUGCCCUCAGAGCUCGAGAACAUCUUCGGAUGCAGAGGAGGCAGGCUUCGGUGGCGCGAUAGCGCCAACGUCCUCAACCUCCAAUGCAUCCCACCACAGGAUGAUGGCUGAAGAGCCUUGGUUUUUUG [U106G C114G] = -3.54
• GACCAAUCUGCCCUCAGAGCUCGAGAACAUCUUCGGAUGCAGAGGAGGCAGGCUUCGGUGGCGCGAUAGCGCCAACGUCCUCAACCUCCAAUGCAUCCCACCACAUGAUGAUGCCUGAAGAGCCUUGGGAUUUUG [U129G U130A] = -2.04
• GACCAAUCUGUCCUCAGAGCUCGAGAACAUCUUCGGAUGCAGAGGAGGCAGGCUUCGCUGGCGCGAUAGCGCCAACGUCCUCAACCUCCAAUGCAUCCCACCACAUGAUGAUGCCUGAAUAGCCUUGGUUUUUUG [C11U G58C G120U] = 0.332
• GACCAAUCUGCCCUCAGAGCUCGAGAACAUCUUCGGAUGCAGAGGAGGCAGGCUUGGGUGGCGCGAUACCGCCAACGUCCUCCACCUCCAAUGCAUCCCACCAUAUGAUGAUGCCUGAAGAGCCUUGGUUUUUUG [C56G G69C A83C C104U] = -5.43
• GACCAAUUUGCCCUCAGACCUCGAGAACAUCUUCGGAUGCAGUGGAGGCAGGCUUCGGUGGCGCGAUAGCGCCAACGUCCUCAACCUCCAAUGAAUCCCACCACAUGAUGAUGCAUGAAUAGCCUUGGUUUUAUG [C8U G19C A43U C94A C115A G120U U133A] = -2.68
• GACCAAUCUGGCCUCAGAGCUCGAGAACAUCUUCGGAUGCAGAGGAGGCAGGCUUGGGUGGCGCGAUAGCGCCAACGUCCUCAACCUCCAAUGCAUCCCACCACAGGAUGAUGCCUGAAGAGCCUUGGUUUUUUG [C11G C56G U106G] = -0.581
• GACCUAUCUGCCCUCAGAGCUCGAGAACAUCUUCGGAUGCAGAGGAGGCAGGCUUCGGUCGCGCGAUAGCGCCAACGUCCUCAACCUCCAAUGCAACCCAACACAUGAUGAUGCCUGAUGAGCCUUGGUUUUUUG [A5U G60C U96A C101A A119U] = -2.53
